# experiment_description: Tmax in Sprague-Dawley rat at 10 mg/kg, po
# Format: ADME, organism-based
# Parameters: dose 10 mg/kg, route oral
# measurement_context: in vivo
A collection of compounds and their measured Tmax

compound="COC(=O)C(CCC(=O)N1CCN(c2ccccc2OC)CC1)(c1ccc(Br)cc1)C(C)C (configuration not stated)" result="30 min"

Moving on to the next compound.
Request: # get_value(readout='Tmax', item= COC(=O)C(CCC(=O)N(C)CCCc1nc2ccccc2[nH]1)(c1ccc(Br)cc1)C(C)C (configuration not stated) )
Response: 30 min

---

# target: Voltage-dependent L-type calcium channel subunit alpha-1C (Homo sapiens, UniProt Q13936)
# Sequence (Q13936 whole entry): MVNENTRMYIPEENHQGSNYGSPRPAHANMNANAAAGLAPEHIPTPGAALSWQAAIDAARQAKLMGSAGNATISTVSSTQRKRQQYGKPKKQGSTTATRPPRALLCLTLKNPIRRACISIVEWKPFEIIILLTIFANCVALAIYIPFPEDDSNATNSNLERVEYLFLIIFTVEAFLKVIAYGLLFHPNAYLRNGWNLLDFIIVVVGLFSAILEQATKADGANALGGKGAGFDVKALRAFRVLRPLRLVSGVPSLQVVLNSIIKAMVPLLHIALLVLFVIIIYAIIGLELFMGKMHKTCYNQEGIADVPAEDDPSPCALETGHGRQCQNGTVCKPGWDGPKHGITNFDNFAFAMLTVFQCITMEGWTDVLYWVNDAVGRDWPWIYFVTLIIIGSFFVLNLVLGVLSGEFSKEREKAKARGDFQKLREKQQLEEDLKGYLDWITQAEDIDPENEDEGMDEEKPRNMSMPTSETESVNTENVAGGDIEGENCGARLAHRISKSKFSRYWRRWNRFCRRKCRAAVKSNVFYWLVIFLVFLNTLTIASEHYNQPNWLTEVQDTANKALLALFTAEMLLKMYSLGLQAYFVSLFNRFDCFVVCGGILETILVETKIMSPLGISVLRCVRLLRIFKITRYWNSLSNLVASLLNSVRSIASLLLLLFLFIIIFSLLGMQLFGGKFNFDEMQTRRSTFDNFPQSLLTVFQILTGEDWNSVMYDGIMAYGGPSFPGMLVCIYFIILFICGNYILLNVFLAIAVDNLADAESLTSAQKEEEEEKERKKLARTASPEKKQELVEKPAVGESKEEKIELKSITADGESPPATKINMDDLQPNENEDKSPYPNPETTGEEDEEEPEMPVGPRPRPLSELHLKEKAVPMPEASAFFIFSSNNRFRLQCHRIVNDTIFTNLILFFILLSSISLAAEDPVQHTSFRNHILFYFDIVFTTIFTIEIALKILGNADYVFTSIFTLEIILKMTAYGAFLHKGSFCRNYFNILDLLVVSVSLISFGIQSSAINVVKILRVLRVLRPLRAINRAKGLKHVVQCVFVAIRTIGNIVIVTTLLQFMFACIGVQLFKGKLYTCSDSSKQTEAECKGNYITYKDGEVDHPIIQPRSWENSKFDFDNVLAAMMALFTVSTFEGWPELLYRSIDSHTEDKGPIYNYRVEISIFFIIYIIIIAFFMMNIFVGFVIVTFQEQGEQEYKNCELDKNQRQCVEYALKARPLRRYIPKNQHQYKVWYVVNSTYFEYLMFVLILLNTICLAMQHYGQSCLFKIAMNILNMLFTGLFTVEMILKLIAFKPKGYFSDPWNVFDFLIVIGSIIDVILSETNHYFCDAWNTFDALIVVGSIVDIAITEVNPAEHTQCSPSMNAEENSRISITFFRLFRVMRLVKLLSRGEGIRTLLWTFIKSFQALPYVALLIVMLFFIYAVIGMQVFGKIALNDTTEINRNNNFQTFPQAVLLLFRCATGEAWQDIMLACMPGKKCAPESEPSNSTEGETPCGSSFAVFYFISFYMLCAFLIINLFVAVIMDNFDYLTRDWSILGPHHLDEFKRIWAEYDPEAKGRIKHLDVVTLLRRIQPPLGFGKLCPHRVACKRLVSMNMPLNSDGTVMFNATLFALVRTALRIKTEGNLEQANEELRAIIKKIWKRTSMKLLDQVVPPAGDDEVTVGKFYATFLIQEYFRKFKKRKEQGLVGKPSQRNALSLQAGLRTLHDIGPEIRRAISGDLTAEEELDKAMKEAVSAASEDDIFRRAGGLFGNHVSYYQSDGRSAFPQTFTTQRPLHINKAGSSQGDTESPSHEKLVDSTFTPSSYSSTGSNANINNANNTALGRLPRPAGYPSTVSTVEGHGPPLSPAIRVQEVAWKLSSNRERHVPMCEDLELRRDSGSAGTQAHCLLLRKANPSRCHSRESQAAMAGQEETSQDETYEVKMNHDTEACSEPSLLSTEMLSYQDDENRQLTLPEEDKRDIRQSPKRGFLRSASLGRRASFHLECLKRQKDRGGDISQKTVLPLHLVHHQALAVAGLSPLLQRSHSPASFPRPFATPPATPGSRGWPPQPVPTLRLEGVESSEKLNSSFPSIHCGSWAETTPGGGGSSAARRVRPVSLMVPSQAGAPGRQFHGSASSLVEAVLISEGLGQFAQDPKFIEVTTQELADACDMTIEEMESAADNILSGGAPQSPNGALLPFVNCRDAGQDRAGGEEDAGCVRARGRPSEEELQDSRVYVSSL
# experiment_description: Inhibition of L-type calcium channel subunit-1C (unknown origin) expressed in HEK293 cells by whole-cell patch clamp method
# Type: cell-based
endpoint_label: IC50 (µM)
# output: bare number, implied unit µM

compound="COC(=O)C(CCC(=O)N1CCN(c2ccccc2OC)CC1)(c1ccc(Br)cc1)C(C)C (configuration not stated)" readout_number=5.9

Request: # get_value(readout='IC50', item= COC(=O)C(CCC(=O)N(C)CCCc1nc2ccccc2[nH]1)(c1ccc(Br)cc1)C(C)C (configuration not stated) )
Response: 5.42

---

# experiment_description: Half life in human microsomes
# Type: ADME, Microsome
A collection of compounds and their measured half-life
# output: bare number, implied unit h

compound="COC(=O)C(CCCN(C)CCCc1nc2ccccc2[nH]1)(c1ccc(Br)cc1)C(C)C (stereo not drawn)" endpoint_label=half-life readout_number=2
compound="COC(=O)C(CCC(=O)N1CCN(c2ccccc2OC)CC1)(c1ccc(Br)cc1)C(C)C (stereo not drawn)" endpoint_label=half-life readout_number=3.67

Moving on to the next compound.
Request: # get_value(readout='half-life', item= COC(=O)C(CCC(=O)N(C)CCCc1nc2ccccc2[nH]1)(c1ccc(Br)cc1)C(C)C (stereo not drawn) )
Response: 4

---

# target: Voltage-gated inwardly rectifying potassium channel KCNH2 (Homo sapiens)
# Sequence (Q12809 whole entry): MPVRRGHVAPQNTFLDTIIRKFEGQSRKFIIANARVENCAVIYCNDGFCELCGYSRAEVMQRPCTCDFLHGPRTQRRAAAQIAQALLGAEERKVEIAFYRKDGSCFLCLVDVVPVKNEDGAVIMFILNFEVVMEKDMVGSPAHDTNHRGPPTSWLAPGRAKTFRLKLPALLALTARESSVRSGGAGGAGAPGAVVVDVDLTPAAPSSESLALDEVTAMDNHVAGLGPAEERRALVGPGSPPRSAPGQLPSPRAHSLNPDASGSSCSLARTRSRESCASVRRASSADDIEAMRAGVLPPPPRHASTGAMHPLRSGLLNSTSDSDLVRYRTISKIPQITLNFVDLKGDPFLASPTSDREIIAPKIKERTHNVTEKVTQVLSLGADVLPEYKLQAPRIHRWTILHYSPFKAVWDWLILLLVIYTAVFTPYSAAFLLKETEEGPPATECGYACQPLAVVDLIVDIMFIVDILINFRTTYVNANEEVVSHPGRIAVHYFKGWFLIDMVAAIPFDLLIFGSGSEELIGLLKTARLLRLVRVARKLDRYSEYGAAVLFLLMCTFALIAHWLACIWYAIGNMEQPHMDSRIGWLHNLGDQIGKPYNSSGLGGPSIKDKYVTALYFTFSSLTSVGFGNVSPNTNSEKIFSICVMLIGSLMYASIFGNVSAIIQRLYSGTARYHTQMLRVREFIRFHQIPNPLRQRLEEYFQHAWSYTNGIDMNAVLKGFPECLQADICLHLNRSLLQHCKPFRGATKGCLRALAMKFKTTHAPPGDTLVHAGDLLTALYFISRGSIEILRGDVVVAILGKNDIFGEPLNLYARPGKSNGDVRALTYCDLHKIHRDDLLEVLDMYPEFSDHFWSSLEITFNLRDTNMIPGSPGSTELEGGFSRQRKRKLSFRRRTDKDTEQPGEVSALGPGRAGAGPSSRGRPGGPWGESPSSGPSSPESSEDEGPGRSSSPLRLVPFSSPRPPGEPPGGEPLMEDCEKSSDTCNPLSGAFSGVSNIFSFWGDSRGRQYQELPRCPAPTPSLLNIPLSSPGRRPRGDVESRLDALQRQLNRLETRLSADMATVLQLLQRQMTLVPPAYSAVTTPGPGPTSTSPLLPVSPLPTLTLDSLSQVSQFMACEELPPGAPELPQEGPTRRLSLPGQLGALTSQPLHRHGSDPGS
# experiment_description: Inhibition of human ERG by whole-cell patch clamp method
endpoint_label: IC50 (µM)
# output: bare number, implied unit µM

compound="CC(C)C(CCCN(C)CCCc1nc2ccccc2[nH]1)(C(=O)O)c1ccc(Br)cc1 (centres undefined)" target="Voltage-gated inwardly rectifying potassium channel KCNH2 (Homo sapiens)" unit_tag=µM readout_number=2.34
compound="COC(=O)C(CCC(=O)N(C)CCCc1nc2ccccc2[nH]1)(c1ccc(Br)cc1)C(C)C (centres undefined)" target="Voltage-gated inwardly rectifying potassium channel KCNH2 (Homo sapiens)" unit_tag=µM readout_number=12.5
compound="COc1ccccc1N1CCN(CCCC(C(=O)O)(c2ccc(Br)cc2)C(C)C)CC1 (centres undefined)" target="Voltage-gated inwardly rectifying potassium channel KCNH2 (Homo sapiens)" unit_tag=µM readout_number=3.96

Request: # get_value(readout='IC50', item= COC(=O)C(CCCN1CC=C(c2ccccc2OC)CC1)(c1ccc(Br)cc1)C(C)C (centres undefined) )
Response: 1.26

---

A collection of compounds and their measured bioavailability
# experiment_description: Bioavailability in Sprague-Dawley rat at 10 mg/kg, […]
# Type: ADME, organism-based
# measurement_context: in vivo
In your response, put the unit directly after the numeric value.

compound="COC(=O)C(CCC(=O)N(C)CCCc1nc2ccccc2[nH]1)(c1ccc(Br)cc1)C(C)C (configuration not stated)" result=60.3%

Request: # get_value(readout='bioavailability', item= COC(=O)C(CCC(=O)N1CCN(c2ccccc2OC)CC1)(c1ccc(Br)cc1)C(C)C (configuration not stated) )
Response: 9.2%

Value source: ChEMBL document CHEMBL3112460
